# System: Serine/threonine-protein kinase pim-2 (Homo sapiens) (UniProt Q9P1W9);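 also: reported value is the mean percent inhibition of PIM2, measured in the GSK PKIS kinase inhibitor set screen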
# Sequence (Q9P1W9 whole entry, looked up): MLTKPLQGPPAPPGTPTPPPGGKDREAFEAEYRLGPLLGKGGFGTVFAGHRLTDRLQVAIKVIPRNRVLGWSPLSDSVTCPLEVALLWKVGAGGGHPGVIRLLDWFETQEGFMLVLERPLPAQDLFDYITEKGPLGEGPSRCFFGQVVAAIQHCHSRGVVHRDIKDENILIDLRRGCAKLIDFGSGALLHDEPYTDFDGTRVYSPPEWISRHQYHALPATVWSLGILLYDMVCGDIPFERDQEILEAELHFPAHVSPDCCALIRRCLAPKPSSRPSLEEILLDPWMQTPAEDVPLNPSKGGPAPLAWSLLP
# Assay Conditions: at 0.1 µM
Property Label: inhibition (%)
The figure you give is taken to be in %; do not add the unit.

Problem: # query: inhibition of entry COc1cc2ncn(-c3cc(OCc4ccccc4C(F)(F)F)c(C(N)=O)s3)c2cc1OC
Result: -3.6

Problem: Repeat for the following molecule: O=C1Nc2ccc(C(=O)c3ccco3)cc2C1=Cc1cc(Cl)c(O)c(Cl)c1
Result: 2.1

Problem: Okay, and [O-][S+]1CCN(Cc2ccc(-c3ccc4ncnc(Nc5ccc(OCc6ccccc6)c(F)c5)c4c3)o2)CC1 ?
Result: -0.49

Problem: Further, for COc1ccc(-c2coc3ncnc(N)c23)cc1 ?
Result: 0.43

Problem: Now give it for CCn1c(-c2nonc2N)nc2c(C#CC(C)(C)O)nc(CN3CCCC3)cc21 too.
Result: 0.26

Problem: Entry to check: COc1cc(C)c(NC(=O)CN(C)C)cc1Nc1nc(Nc2cccc(F)c2C(N)=O)c2cc[nH]c2n1
Result: 0.16

---

# System: Serine/threonine-protein kinase Nek2 (Homo sapiens);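 also: mean inhibition value from the GSK PKIS kinase screening panel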
# Assay Conditions: at 0.1 µM
inhibition reference
Respond numerically; units are % and should not be typed.

CC1=C(C(=O)Nc2ccc3[nH]ncc3c2)C(c2ccc(F)cc2)NC(=O)N1 (stereo not given) ... 3.07
c1cnn2ncc(-c3ccnc(Nc4ccc5c(c4)OCCO5)n3)c2c1 ... 4.88
COc1cc2c(cc1Nc1nc(N3CCc4ccccc43)c3cc[nH]c3n1)N(C(=O)CN(C)C)CC2 ... 2.74

Problem: Recorded inhibition of COc1cc2ncn(-c3cc(O[C@H](C)c4ccccc4Cl)c(C(N)=O)s3)c2cc1OC , please.
Result: 12.1

Problem: CCn1c(-c2nonc2N)nc2c(N3CCCC3)nccc21 ?
Result: -0.88

---

# System: Tyrosine-protein kinase JAK2 (Homo sapiens) (UniProt O60674);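 also: mean JAK2 inhibition from the GSK PKIS screen, compounds tested at 1 µM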
# Sequence (O60674 whole entry): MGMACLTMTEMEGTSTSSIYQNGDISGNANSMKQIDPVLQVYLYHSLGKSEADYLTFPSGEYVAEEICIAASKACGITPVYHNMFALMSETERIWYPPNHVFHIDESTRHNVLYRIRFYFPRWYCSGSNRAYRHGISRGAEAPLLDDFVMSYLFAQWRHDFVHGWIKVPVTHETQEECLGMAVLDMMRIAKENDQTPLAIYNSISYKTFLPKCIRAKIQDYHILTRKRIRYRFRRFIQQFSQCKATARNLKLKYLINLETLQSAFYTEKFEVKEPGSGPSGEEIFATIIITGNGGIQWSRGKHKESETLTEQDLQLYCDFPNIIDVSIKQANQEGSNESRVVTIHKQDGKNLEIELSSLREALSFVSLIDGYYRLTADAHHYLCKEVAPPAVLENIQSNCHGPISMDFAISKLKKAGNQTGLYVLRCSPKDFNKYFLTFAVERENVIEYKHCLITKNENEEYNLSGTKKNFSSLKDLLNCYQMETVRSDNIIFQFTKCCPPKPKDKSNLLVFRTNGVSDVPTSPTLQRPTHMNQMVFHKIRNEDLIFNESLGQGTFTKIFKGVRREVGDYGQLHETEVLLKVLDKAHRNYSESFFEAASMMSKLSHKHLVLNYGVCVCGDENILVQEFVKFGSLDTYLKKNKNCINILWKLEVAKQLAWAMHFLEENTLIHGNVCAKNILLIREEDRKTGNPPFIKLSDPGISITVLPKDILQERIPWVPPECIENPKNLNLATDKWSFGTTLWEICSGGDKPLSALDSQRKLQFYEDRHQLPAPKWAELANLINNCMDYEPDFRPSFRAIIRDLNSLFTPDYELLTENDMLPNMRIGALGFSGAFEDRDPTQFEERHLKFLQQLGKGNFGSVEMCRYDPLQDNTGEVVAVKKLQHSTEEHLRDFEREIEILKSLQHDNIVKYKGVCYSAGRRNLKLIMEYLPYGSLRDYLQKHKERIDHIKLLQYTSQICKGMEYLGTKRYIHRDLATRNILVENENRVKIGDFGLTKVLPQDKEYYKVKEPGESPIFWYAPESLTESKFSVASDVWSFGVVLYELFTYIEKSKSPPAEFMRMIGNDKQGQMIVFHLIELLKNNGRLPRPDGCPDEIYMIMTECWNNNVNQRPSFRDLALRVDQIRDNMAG
# Assay Conditions: at 1 µM
Property Label: inhibition (%)
API: value field is a number in %; no unit string.

CS(=O)(=O)CCN(CC#N)Cc1ccc(-c2ccc3ncnc(Nc4ccc(OCc5cccc(F)c5)c(Cl)c4)c3c2)o1 ... 1.26
Nc1nc(-c2ccccn2)c(-c2ccc3ncccc3n2)s1 ... 2
NC(=O)c1cccc(Nc2nccc(Nc3cccc4[nH]ncc34)n2)c1 ... 57
CCn1c(-c2nonc2N)nc2cncc(C(=O)N3CC[C@H](N)C3)c21 ... 1.25
COc1ccc(-c2nn3ncccc3c2-c2ccnc(Nc3ccc(Cl)c(C(F)(F)F)c3)n2)cc1 ... -0.98

Problem: Which inhibition is reported for this compound? NS(=O)(=O)c1ccc(N/N=C2\C(=O)Nc3ccc(C(=O)NCCc4c[nH]cn4)cc32)cc1
Result: 2.46

Problem: // query: COc1cc2ncn(-c3cc(OCc4ccccc4C(F)(F)F)c(C(N)=O)s3)c2cc1OC
Result: 1.84

Problem: Okay, and CS(=O)(=O)CCNCc1ccc(-c2ccc3ncnc(Nc4ccc(OCc5cccc(F)c5)c(C(F)(F)F)c4)c3c2)o1 ?
Result: 1.17

Problem: And then Cc1cc(O)cc(C)c1/C=C/c1cncc(-c2nn[nH]n2)c1 , what is it?
Result: 2.27

Problem: Please do the same for COc1ccc(-c2coc3ncnc(N)c23)cc1 as well.
Result: 2.08

Problem: Can you handle CS(=O)(=O)CCNCc1nc(-c2ccc3ncnc(Nc4ccc(F)c(Cl)c4)c3c2)cs1 next?
Result: 4.99

Problem: Next compound: Nc1nc(-c2ccc3c(c2)C(=Cc2cc(Br)c(O)c(Br)c2)C(=O)N3)cs1
Result: -1.87

Problem: Let us now turn to NS(=O)(=O)c1cccc(-c2ccc3c(NC(=O)C4CC4)n[nH]c3c2)c1
Result: -1.18

Problem: Now give it for Cc1ccc(C(=O)NC2CCCCC2)cc1-c1ccc(C(=O)NCC2CC2)cc1 too.
Result: 4.08

Problem: Now consider O=C1Nc2ccc(C(=O)c3ccco3)cc2C1=Cc1cc(Cl)c(O)c(Cl)c1 and answer again.
Result: 6
